Answer each item with its documented Drug uptake.
# System: Brain
# run_description: Biodistribution in Wistar rat brain at 22 Mbq, iv measured at 2 mins post administration by gamma counting
# Assay type: ADME, organism-based
# condition_context: in vivo
One number for each entry, in %ID.

# item_smiles, assayed_target, assay_result
rows = [
    ("[11CH3]Oc1c(F)ccc(F)c1C1CCN(c2ccn3c(CC4CC4)nnc3c2C(F)(F)F)CC1", "Brain", 0.75),
    ("[11CH3]Oc1ccc(F)c(F)c1C1CCN(c2ccn3c(CC4CC4)nnc3c2Cl)CC1", "Brain", 0.64),
    ("[11CH3]Oc1c(F)ccc(F)c1C1CCN(c2ccn3c(CC4CC4)nnc3c2Cl)CC1", "Brain", 0.88),
    ("[11CH3]Oc1cccc(F)c1C1CCN(c2ccn3c(CC4CC4)nnc3c2Cl)CC1", "Brain", 0.65),
    ("[11CH3]Oc1cc(F)cc(F)c1C1CCN(c2ccn3c(CC4CC4)nnc3c2Cl)CC1", "Brain", 0.75),
]

Recorded Drug uptake for [11CH3]Oc1ccc(F)cc1C1CCN(c2ccn3c(CC4CC4)nnc3c2Cl)CC1 with Brain, please? 0.58

* * *

# assayed_target: Sodium-dependent dopamine transporter (Homo sapiens, UniProt Q01959)
# Sequence (Q01959 whole entry): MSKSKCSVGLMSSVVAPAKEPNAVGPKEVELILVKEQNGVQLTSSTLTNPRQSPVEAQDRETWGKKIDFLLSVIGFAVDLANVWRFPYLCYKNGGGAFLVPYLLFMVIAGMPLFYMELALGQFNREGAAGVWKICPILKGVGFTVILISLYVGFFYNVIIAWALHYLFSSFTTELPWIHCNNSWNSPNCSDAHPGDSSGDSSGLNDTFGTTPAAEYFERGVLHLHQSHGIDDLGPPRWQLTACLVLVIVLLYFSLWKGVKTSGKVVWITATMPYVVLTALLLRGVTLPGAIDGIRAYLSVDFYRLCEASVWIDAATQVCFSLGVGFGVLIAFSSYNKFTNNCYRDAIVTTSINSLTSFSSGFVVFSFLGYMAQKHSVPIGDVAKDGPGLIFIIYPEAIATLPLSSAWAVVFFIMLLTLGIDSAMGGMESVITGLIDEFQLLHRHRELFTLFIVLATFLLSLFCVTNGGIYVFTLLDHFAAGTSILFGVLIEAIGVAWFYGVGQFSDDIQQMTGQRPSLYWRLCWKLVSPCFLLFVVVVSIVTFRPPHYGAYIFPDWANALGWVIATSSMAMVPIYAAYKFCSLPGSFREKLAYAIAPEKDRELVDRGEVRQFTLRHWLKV
measured_property: pKi
Numbers only, as −log10 of the molar value.

# query: pKi of entry COc1ccc(F)cc1C1CCN(c2ccn3c(CC4CC4)nnc3c2Cl)CC1 5.30

* * *

# run_description: Metabolic stability in Wistar rat cerebellum assessed as intact tracer at 74 MBq, iv measured at 30 mins post administration by gamma counting
# Type: ADME, organism-based
# condition_context: read-out: Stability
measured_property: remaining at 0.5 h
Phrase the answer as number then unit, nothing more needed.

# item_smiles, remaining at 0.5 h
records = [
    ("[11CH3]Oc1ccc(F)c(F)c1C1CCN(c2ccn3c(CC4CC4)nnc3c2Cl)CC1", "96.4%"),
]

For each listed entry, give its remaining at 0.5 h.
1. [11CH3]Oc1cc(F)cc(F)c1C1CCN(c2ccn3c(CC4CC4)nnc3c2Cl)CC1
2. [11CH3]Oc1ccc(F)cc1C1CCN(c2ccn3c(CC4CC4)nnc3c2Cl)CC1
3. [11CH3]Oc1c(F)ccc(F)c1C1CCN(c2ccn3c(CC4CC4)nnc3c2Cl)CC1

1. 95.5%
2. 92.7%
3. 95.5%

* * *

# assayed_target: Metabotropic glutamate receptor 2 (Homo sapiens)
# Sequence (Q14416 whole entry): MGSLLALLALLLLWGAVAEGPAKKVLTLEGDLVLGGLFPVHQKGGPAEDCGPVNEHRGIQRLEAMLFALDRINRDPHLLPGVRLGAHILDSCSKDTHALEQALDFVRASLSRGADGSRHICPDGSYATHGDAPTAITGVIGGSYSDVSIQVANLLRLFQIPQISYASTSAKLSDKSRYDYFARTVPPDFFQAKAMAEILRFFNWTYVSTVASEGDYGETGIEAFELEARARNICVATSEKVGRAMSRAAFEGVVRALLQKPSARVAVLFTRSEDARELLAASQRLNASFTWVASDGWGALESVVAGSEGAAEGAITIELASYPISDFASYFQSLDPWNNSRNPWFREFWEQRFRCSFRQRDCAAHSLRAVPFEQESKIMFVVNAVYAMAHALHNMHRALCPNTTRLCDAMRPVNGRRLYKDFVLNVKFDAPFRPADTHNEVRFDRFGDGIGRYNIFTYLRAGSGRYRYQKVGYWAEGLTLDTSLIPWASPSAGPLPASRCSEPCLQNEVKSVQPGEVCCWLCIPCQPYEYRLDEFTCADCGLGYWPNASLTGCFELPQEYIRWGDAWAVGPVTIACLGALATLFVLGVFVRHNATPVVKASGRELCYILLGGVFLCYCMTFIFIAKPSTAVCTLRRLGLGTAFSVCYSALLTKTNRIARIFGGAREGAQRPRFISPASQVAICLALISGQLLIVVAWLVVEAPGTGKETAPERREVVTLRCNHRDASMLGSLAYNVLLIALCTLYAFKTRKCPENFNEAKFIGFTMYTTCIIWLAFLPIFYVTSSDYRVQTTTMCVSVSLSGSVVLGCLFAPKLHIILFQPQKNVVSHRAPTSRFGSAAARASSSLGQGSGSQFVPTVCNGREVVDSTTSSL
# run_description: Agonist activity at human mGLuR2 expressed in CHO cell membrane assessed as […] after 30 mins by scintillation counting
# Format: functional, cell membranes
# condition_context: read-out: EC50
I'd appreciate it if you marked entries true (1) when EC50 is lower than 10 nM and false (0) when it is not.

Example results:
# item_smiles, class_name
data = [
    ("COc1c(F)ccc(F)c1C1CCN(c2ccn3c(CC4CC4)nnc3c2Cl)CC1", "true (1)"),
    ("COc1ccc(F)cc1C1CCN(c2ccn3c(CC4CC4)nnc3c2Cl)CC1", "true (1)"),
]

Please state whether EC50 is below 10 nM for COc1c(F)cccc1C1CCN(c2ccn3c(CC4CC4)nnc3c2C(F)(F)F)CC1 false (0)

Further, for COc1c(F)cccc1C1CCN(c2ccn3c(CC(F)(F)F)nnc3c2C#N)CC1 ? false (0)

Further, for COc1c(C2CCN(c3ccn4c(CC5CC5)nnc4c3Cl)CC2)ccc(F)c1F ? false (0)

* * *

# Test system: Hippocampus
# run_description: Ratio of SUV in hippocampus in iv dosed Wistar at 2 mins post administration by gamma counting to SUV in hippocampus in iv dosed Wistar at 30 mins post administration by gamma counting
# Type: ADME, organism-based
# condition_context: rat, in vivo
measured_property: Ratio
Answers are plain numbers.

For each listed entry, give its Ratio.
1. [11CH3]Oc1ccc(F)cc1C1CCN(c2ccn3c(CC4CC4)nnc3c2Cl)CC1
2. [11CH3]Oc1ccc(F)c(F)c1C1CCN(c2ccn3c(CC4CC4)nnc3c2Cl)CC1
3. [11CH3]Oc1c(F)ccc(F)c1C1CCN(c2ccn3c(CC4CC4)nnc3c2Cl)CC1
4. [11CH3]Oc1cc(F)cc(F)c1C1CCN(c2ccn3c(CC4CC4)nnc3c2Cl)CC1

1: 0.66; 2: 1.19; 3: 0.6; 4: 0.71

For each listed entry, give its Ratio.
1. [11CH3]Oc1cccc(F)c1C1CCN(c2ccn3c(CC4CC4)nnc3c2Cl)CC1
2. [11CH3]Oc1c(F)ccc(F)c1C1CCN(c2ccn3c(CC4CC4)nnc3c2C(F)(F)F)CC1

1. 0.63
2. 1.01

* * *

# Tested on: Cerebrum
# run_description: Ratio of SUV in cerebrum in iv dosed Wistar at 2 mins post administration by gamma counting to SUV in cerebrum in iv dosed Wistar at 30 mins post administration by gamma counting
# Assay type: ADME, organism-based
# condition_context: rat, in vivo
I'd appreciate it if you marked entries TRUE when Ratio is lower than 0.7 and FALSE when it is not.

Please state whether Ratio is below 0.7 for [11CH3]Oc1c(F)ccc(F)c1C1CCN(c2ccn3c(CC4CC4)nnc3c2C(F)(F)F)CC1 FALSE

Further, for [11CH3]Oc1cccc(F)c1C1CCN(c2ccn3c(CC4CC4)nnc3c2Cl)CC1 ? TRUE

* * *

# System: Liver microsomes
# run_description: Drug metabolism in rat liver microsomes assessed as M+O oxidative metabolite
# Format: ADME, Microsome
measured_property: Drug metabolism

# item_smiles, Drug metabolism
records = [
    ("COc1c(F)cccc1C1CCN(c2ccn3c(CC4CC4)nnc3c2C(F)(F)F)CC1", "Active"),
    ("COc1c(F)ccc(F)c1C1CCN(c2ccn3c(CC4CC4)nnc3c2C(F)(F)F)CC1", "Active"),
    ("COc1c(C2CCN(c3ccn4c(CC5CC5)nnc4c3Cl)CC2)ccc(F)c1F", "Active"),
    ("COc1ccc(F)c(F)c1C1CCN(c2ccn3c(CC4CC4)nnc3c2Cl)CC1", "Active"),
    ("COc1ccc(F)cc1C1CCN(c2ccn3c(CC(F)(F)F)nnc3c2Cl)CC1", "Active"),
    ("COc1ccc(F)cc1C1CCN(c2ccn3c(CC4CC4)nnc3c2Cl)CC1", "Active"),
    ("COc1c(F)cccc1C1CCN(c2ccn3c(CC(F)(F)F)nnc3c2C#N)CC1", "Active"),
    ("COc1cc(F)cc(F)c1C1CCN(c2ccn3c(CC4CC4)nnc3c2Cl)CC1", "Active"),
]

For each listed entry, give its Drug metabolism.
1. COc1c(F)ccc(F)c1C1CCN(c2ccn3c(CC4CC4)nnc3c2Cl)CC1
2. COc1c(F)cccc1C1CCN(c2ccn3c(CC4CC4)nnc3c2Cl)CC1
3. COc1ccccc1C1CCN(c2ccn3c(CC4CC4)nnc3c2Cl)CC1
4. COc1cccc(F)c1C1CCN(c2ccn3c(CC4CC4)nnc3c2Cl)CC1

Active
Active
Active
Active

* * *

# assayed_target: UniProt Q14416
# run_description: Displacement of [3H]JNJ-40068782 from human mGLuR2 expressed in CHO cell membrane after 60 mins by liquid scintillation counting
measured_property: IC50 (nM)
Answers are plain numbers, in nM.

# item_smiles, IC50 / nM
rows = [
    ("COc1ccc(F)cc1C1CCN(c2ccn3c(CC4CC4)nnc3c2Cl)CC1", 11.2),
    ("COc1c(F)ccc(F)c1C1CCN(c2ccn3c(CC4CC4)nnc3c2Cl)CC1", 9.23),
]

For each listed entry, give its IC50.
1. COc1cc(F)cc(F)c1C1CCN(c2ccn3c(CC4CC4)nnc3c2Cl)CC1
2. COc1cccc(F)c1C1CCN(c2ccn3c(CC4CC4)nnc3c2Cl)CC1
3. COc1ccc(F)c(F)c1C1CCN(c2ccn3c(CC4CC4)nnc3c2Cl)CC1

1. 5.6
2. 11.2
3. 7.3

* * *

# Tested on: Brain
# run_description: Ratio of SUV in total brain in iv dosed Wistar at 2 mins post administration by gamma counting to SUV in total brain in iv dosed Wistar at 30 mins post administration by gamma counting
# Assay type: ADME, organism-based
# condition_context: rat, in vivo
Answer each item with its documented Ratio.
Give bare numbers.

# item_smiles, assayed_target, Ratio
measured = [
    ("[11CH3]Oc1ccc(F)c(F)c1C1CCN(c2ccn3c(CC4CC4)nnc3c2Cl)CC1", "Brain", 0.93),
]

For each listed entry, give its Ratio.
1. [11CH3]Oc1ccc(F)cc1C1CCN(c2ccn3c(CC4CC4)nnc3c2Cl)CC1
2. [11CH3]Oc1c(F)ccc(F)c1C1CCN(c2ccn3c(CC4CC4)nnc3c2C(F)(F)F)CC1
3. [11CH3]Oc1cccc(F)c1C1CCN(c2ccn3c(CC4CC4)nnc3c2Cl)CC1
4. [11CH3]Oc1cc(F)cc(F)c1C1CCN(c2ccn3c(CC4CC4)nnc3c2Cl)CC1
5. [11CH3]Oc1c(F)ccc(F)c1C1CCN(c2ccn3c(CC4CC4)nnc3c2Cl)CC1

0.79
1.08
0.72
0.88
0.65
